- Test system: E. coli ATCC 25922
- Construct: ATCC 25922
- Method Summary: microbe, parasite or virus in culture
- Parameters: Bacterial growth inhibition, OD600, dose-response in 384-well plates, AC50
- Settings: Escherichia coli, ATCC25922, 24 h
Flag rule - AC50 less than 50 µM flags True; the remaining entries get False.

* CC(C)(Cc1ccc2ccccc2c1)NC[C@@H](O)COc1cccc(Cl)c1C#N [EOS101044, NPS-2143] | True
* Oc1c(Cl)cc(Cl)c(Cl)c1Cc1c(O)c(Cl)cc(Cl)c1Cl [EOS100333, HEXACHLOROPHENE] | True
* CCc1nc(N)nc(N)c1-c1ccc(Cl)cc1 [EOS101458, PYRIMETHAMINE] | False
* Oc1c(Cl)cc(Cl)cc1Sc1cc(Cl)cc(Cl)c1O [EOS101771, BITHIONOL] | True
* Cn1cc(C2=C(c3cn(CCCSC(=N)N)c4ccccc34)C(=O)NC2=O)c2ccccc21 [EOS101001, BISINDOLYLMALEIMIDE IX] | False
* c1ccc2c(c1)[I+]c1ccccc1-2 [EOS101209, DIPHENYLENEIODONIUM] | True
* COc1ccc(Cc2cnc(N)nc2N)cc1OC [EOS100884, DIAVERIDINE] | True
* CC(C)c1cccc(=O)c(O)c1 [EOS100813, HINOKITIOL] | True
